Kindly state PBM binding z-score for each of the entries shown.
# System: PPARg:RXRa 90nM:30nM, anti-RXR (NR concentration 90 nM, RXRa partner concentration 30 nM)
# protocol: PBM binding z-score (relative to random genomic background probes); higher = stronger binding; sequences stand for … in GC…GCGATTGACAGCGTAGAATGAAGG
Please give the numeric answer without any surrounding text.

Data request, read-out PBM binding z-score, for TCGAGTATGTTACGGGGGCATTCAGGGATGAAGA
3.35

Do the same for CCTTACGGGTCAAGGTTATACCACGGGTGGTACG please
3.83

Do the same for ATATGTAGGTTAGGGTTATTCAGAAAGTAGGGAA please
4.8

Do the same for CGGACTAGGTCAAAGGACAGTGAAAGGCGACGTA please
9.55

Do the same for CCTTACGGGTCACTCCATGTTATAGCATCGGAGT please
2.33

Do the same for CTTTGTAGGTTAAGGGGGTCATTCAGTTTGAAAG please
7.23

Do the same for CGAACTAGGTCATCAGGACAGTGAAGAGGTTGGA please
5.72

Do the same for TAGCCTAGGTCATTCAGGGGCCAGTATGGAAAGC please
1.74

Do the same for CCTACTGGGCCATTGAGAGGTCATTGATCATATG please
1.68

Do the same for CAGCCTAGTTCAGGGCCAGTATAGGAGGAACGTT please
-0.509

Do the same for ATATGTAGCTTAGGGTCATTCAGAAAGTAGGGAA please
2.4

Do the same for CGAACTAGGTCACCTGGACAGTGAAGAGGTTGGA please
5.86

Do the same for CCGAGTAGGTTACGAGGGGGCAGTCAGTGCGAAT please
2.04

Do the same for CCGAGTCGGTTACGAGGGGGCATTCAGTGCGAAT please
0.329

Do the same for ATAAGTAGGTTAGGGTCATTCAGAAAGTAGGGAA please
7

Do the same for CGTCAAAGTTCAAGCTAACGTAACAGAAAGCAGC please
4.32

Do the same for CGTCCAAGGTCATAGGAGTTCAGTGAAGACAGAT please
4.2

Do the same for CCTACTGGGCCACGAAAGGTAATTGATTCAGTGA please
0.669

Do the same for ATATGTATGTTAGGGTCATTCAGAAAGTAGGGAA please
3.4

Do the same for TCTAGTTGGTCACGGAGGTCACACGCGACGGGTA please
3.9

Do the same for CCTACTGGGCGACGAAAGGTCATTGATTCAGTGA please
2.73

Do the same for ATATGTAGGTTAGGATCATTCAGAAAGTAGGGAA please
2.31

Do the same for TCGAGTAGGTTACGGGGGGATTCAGGGATGAAGA please
4.14

Do the same for CAAACTAGGTCACGAAAGGTCAAAATCGAATGAC please
8.42

Do the same for TGAATGAGGTCAAAGATCAGGGAACGTGGCGTCG please
9.22

Do the same for AGTCAAAGTTCAGCACGAGGTAACGTAAAGCACG please
4.2
